Assay: chemical genetic growth profiling, strain panel (AID 1159580);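 further: tested at 20 µM; growth read once vehicle control cultures reached saturation at 30 °C; 1 = growth at the plate median or of vehicle wells; lower values mean less growth of the strain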
Settings: S. cerevisiae deletion strains, growth OD, locus YNL175C, strain NOP13, stronger effect = lower value
Hit rate of the full screen: of about 5,500 compounds, about 2,000 (36%) were called active. Inconclusive results (about 18%) are left out. Some of the results follow.

compound	normalized growth
CC1=C(CC(=O)O)c2cc(F)ccc2/C1=C\c1ccc(S(C)=O)cc1 (stereo not given)	1.02 (inactive)
CNCC(O)c1ccc(O)c(O)c1 (stereo not given)	0.994 (inactive)
CNC(=O)[C@H]1O[C@@H](n2cnc3c(N)ncnc32)C(O)[C@H]1O (stereo not given in full)	0.984 (inactive)
CNCC(O)c1cccc(O)c1 (stereo not given)	1.01 (inactive)
COCCc1ccc(OCC(O)CNC(C)C)cc1 (stereo not given)	1.01 (inactive)
CP(=O)(O)C1=CCNCC1	1.01 (inactive)
C[C@H]1O[C@@H](n2cc(F)c(=O)[nH]c2=O)[C@H](O)[C@@H]1O	1 (inactive)
CCN(CC)CCCC(C)Nc1ccnc2cc(Cl)ccc12 (stereo not given)	1.01 (inactive)
CC(CCc1ccc(O)cc1)NCCc1ccc(O)c(O)c1 (stereo not given)	1.01 (inactive)
O=c1onc2cnc3ccccc3n12	0.999 (inactive)
OC[C@H]1O[C@@H](n2cnc3c(Nc4ccccc4)ncnc32)C(O)[C@H]1O (stereo not given in full)	0.98 (inactive)
O=C(O)C1C2CCC(O2)C1C(=O)O (stereo not given)	1.01 (inactive)
CC1=C(CC(=O)O)c2cc(F)ccc2/C1=C\c1ccc(S(C)(=O)=O)cc1	0.98 (inactive)
Ic1ccc(N2CCN(Cc3c[nH]c4ncccc34)CC2)cc1	1.01 (inactive)
CCN(CC)CCCC(C)Nc1c2ccc(Cl)cc2nc2ccc(OC)cc12 (stereo not given)	0.992 (inactive)
Cc1c(C(=O)c2cccc3ccccc23)c2cccc3c2n1[C@H](CN1CCOCC1)CO3	0.992 (inactive)
CCCN(CCC)CCc1ccc(O)c(O)c1	0.997 (inactive)
C[N+](C)(C)CCCCCCCCCC[N+](C)(C)C	1.01 (inactive)
COc1ccc(CCNC[C@@H](O)c2ccc(O)cc2)cc1OC	0.992 (inactive)
C[C@@H](NCCc1ccc(O)cc1)[C@@H](O)c1ccc(O)cc1	0.999 (inactive)

====

Assay: chemical genetic growth profiling, strain panel (AID 1159580);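 further: tested at 20 µM; growth read once vehicle control cultures reached saturation at 30 °C; 1 = growth at the plate median or of vehicle wells; lower values mean less growth of the strain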
Settings: S. cerevisiae deletion strains, growth OD, locus YCL069W, strain vba3, stronger effect = lower value
The campaign covered roughly 5,500 compounds. About 2,000 (36%) were called active. Another 18% or so got no clear call; they are omitted. The list shows a part of the results.
assay_metric: normalized growth

compound	endpoint_result
COC1=CC(=O)C[C@@H](C)[C@]12Oc1c(Cl)c(OC)cc(OC)c1C2=O	0.979
NCC1CCC(C(=O)O)CC1 (stereo not drawn)	0.991
COCCc1ccc(OCC(O)CNC(C)C)cc1 (stereo not drawn)	0.992
O=C(O)c1cc2ccccc2c(Cc2c(O)c(C(=O)O)cc3ccccc23)c1O	1
N=c1ccn2c(n1)O[C@@H]1C2O[C@H](CO)[C@H]1O (stereo partly drawn)	0.991
O=C(O)c1cc2ccccc2[nH]1	0.984
COc1ccc2c(c1OC)C(=O)O[C@H]2[C@H]1c2cc3c(cc2CCN1C)OCO3	1
CC(=O)N[C@@H](CC(C)C)C(=O)O	0.996
COc1ccc2cc([C@H](C)CO)ccc2c1	1.01
COc1cc2c(cc1OC)[C@@H]1C(=O)c3ccc4c(c3O[C@@H]1CO2)C=CC(C)(C)O4	1
COc1ccc2c(c1OC)C(=O)O[C@@H]2[C@H]1c2cc3c(cc2CCN1C)OCO3	1
C=Cc1c2[nH]c(c1C)C=c1[nH]c(c(C)c1C=C)=CC1N=C(C=c3[nH]c(c(C)c3CCC(=O)O)=C2)C(CCC(=O)O)=C1C (stereo not drawn)	1.02
COc1ccc2cc([C@H](C)C(=O)O)ccc2c1	0.968
CC1=C(C(C)O)C2=NC1C=c1[nH]c(c(C)c1C(C)O)=Cc1[nH]c(c(CCC(=O)O)c1C)C=c1[nH]c(c(C)c1CCC(=O)O)=C2 (stereo not drawn)	0.99
CCCCNc1cc(C(=O)O)cc(S(N)(=O)=O)c1Oc1ccccc1	1.01
CCCCCCCCNC(C)C(O)c1ccc(SC(C)C)cc1 (stereo not drawn)	0.0585
CCN(CC)CCCC(C)Nc1c2ccc(Cl)cc2nc2ccc(OC)cc12 (stereo not drawn)	1.01
COc1cc(/C=C/C(=O)/C=C(O)/C=C/c2ccc(O)c(OC)c2)ccc1O	0.224
CN(C)c1ccc(C(=C2C=CC(=[N+](C)C)C=C2)c2ccc(N(C)C)cc2)cc1	0.57
ClC1=C(Cl)C2(Cl)C3C(Cl)C=CC3C1(Cl)C2(Cl)Cl (stereo not drawn)	1.01
COc1cc2c(cc1OC)Cc1cc(OC)c(OC)cc1Cc1cc(OC)c(OC)cc1C2	1.02
CCN(CCO)CCCC(C)Nc1ccnc2cc(Cl)ccc12 (stereo not drawn)	0.998
C=C1C2CC[C@H]3[C@]4(C)C[C@H](OC5OC(CO)C(OS(=O)(=O)O)C(OS(=O)(=O)O)C5OC(=O)CC(C)C)C[C@@H](C(=O)O)[C@H]4CC[C@]3(C2)[C@H]1O (stereo partly drawn)	1.02
CCCCCCCCCCCCCCCC(=O)OC/C=C(C)/C=C/C=C(C)/C=C/C1=C(C)CCCC1(C)C	1.01
Cc1cccc(C)c1OCC(C)N (stereo not drawn)	1.01
COc1cc2c(cc1OC)[C@@H]1C(=O)c3ccc4oc(C(C)C)cc4c3O[C@@H]1CO2	1
CN1CCC(=C2c3ccccc3Sc3ccccc32)CC1	1.02
C=C(C)C1CNC(C(=O)O)C1CC(=O)O (stereo not drawn)	0.995
CS(=O)(=O)c1ccc(C2=C(c3ccccc3)C(=O)OC2)cc1	0.976
CNC(C)[C@H](O)c1ccccc1 (stereo partly drawn)	0.986
O=C(O)c1c2ccccc2cc2ccccc12	1.01
CC1=C(/C=C/C(C)=C/C=C/C(C)=C/C=C/C=C(C)/C=C/C=C(C)/C=C/C2=C(C)C(=O)C(O)CC2(C)C)C(C)(C)CC(O)C1=O (stereo not drawn)	1.05
CC(C(=O)O)c1cccc(C(=O)c2ccccc2)c1 (stereo not drawn)	0.983
ClC1=C(Cl)C2(Cl)C3C4C=CC(C4)C3C1(Cl)C2(Cl)Cl (stereo not drawn)	0.997
OCCN1C[C@@H](O)[C@@H](O)C(O)C1CO (stereo partly drawn)	0.991
COP(=O)(OC)OC=C(Cl)Cl	1
CN1CCC(=C2c3ccccc3CC(=O)c3sccc32)CC1	0.983
CN(C)C(=S)SSC(=S)N(C)C	0.0641
O=C1C=CC(=C(c2ccc(O)cc2)c2ccc(O)cc2)C=C1	0.959
CC1(C)OC(=O)NC1=O	1
CN1CCCN=C1COC(=O)C(O)(c1ccccc1)C1CCCCC1 (stereo not drawn)	0.997
NC(=O)C(c1ccccc1)(c1ccccc1)C1CCN(CCc2ccc3c(c2)CCO3)C1 (stereo not drawn)	1.02
COc1ccc(OC)c(C(O)C(C)N)c1 (stereo not drawn)	1

====

Listing of recorded normalized growth by entry.
Assay: chemical genetic growth profiling, strain panel (AID 1159580);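 further: tested at 20 µM; growth read once vehicle control cultures reached saturation at 30 °C; 1 = growth at the plate median or of vehicle wells; lower values mean less growth of the strain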
Conditions: S. cerevisiae deletion strains, growth OD, locus YER155C, strain BEM2, stronger effect = lower value
About 2,000 (36%) of roughly 5,500 compounds were called active. Another 18% or so got no clear call; they are omitted. The list shows a part of the results.

test_smiles	normalized growth
Cc1c(O)c(C(=O)CC(C)C)c2oc3c(C(=O)CC(C)C)c(O)c(C)c(O)c3c2c1O	0.995 (inactive)
CCCCCCCCCCCCCCCC[N+](C)(C)C	0.0716 (active)
COc1cc2c(cc1OC)[C@@H]1C(=O)c3ccc4c(c3O[C@@H]1CO2)C=CC(C)(C)O4	0.988 (inactive)

====

Items are presented alongside their recorded normalized growth.
Assay: chemical genetic growth profiling, strain panel (AID 1159580);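 further: tested at 20 µM; growth read once vehicle control cultures reached saturation at 30 °C; 1 = growth at the plate median or of vehicle wells; lower values mean less growth of the strain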
Details: S. cerevisiae deletion strains, growth OD, locus YNL271C, strain bni1, stronger effect = lower value
Out of some 5,500 compounds screened, about 2,000 (36%) were called active. Roughly 18% stayed inconclusive and do not appear here. This is one part of the list.

compound	normalized growth
COc1cc2c(cc1OC)[C@@H]1C(=O)c3ccc(OC)c(CC=C(C)C)c3O[C@@H]1CO2	1.01
CC1(C)C(C=C(Cl)Cl)C1C(=O)OC(C#N)c1cccc(Oc2ccccc2)c1 (stereo unspecified)	0.998
COc1cc2c(cc1OC)[C@@H]1C(=O)c3ccc4c(c3O[C@@H]1CO2)C=CC(C)(C)O4	0.963
CC(C)(OC(=O)c1ccccc1)[C@@H]1Cc2cc3ccc(=O)oc3cc2O1	0.938
NCCSSCCN	1.01
CCOC(=O)C(Cc1ccc(O)cc1)NC(C)=O (stereo unspecified)	0.993
